Biological target: T1, ARS2^171–270+408–763 (human, UniProt Q9BXP5-4 171-270; Q9BXP5-4 408-763)
T1 construct: human ARS2 (SRRT) isoform-e, residues 171-270, cloned into pETM11; human ARS2 (SRRT) isoform-e, residues 408-763, cloned for co-expression into pDUET and pET15b; Two co-expressed fragments of one protein that fold into one core; also called crystallised core; source: E. coli Rosetta 2, two fragments co-expressed, purified; not shown: His6, N-terminal, cleaved
T1 sequence (looked up) 1: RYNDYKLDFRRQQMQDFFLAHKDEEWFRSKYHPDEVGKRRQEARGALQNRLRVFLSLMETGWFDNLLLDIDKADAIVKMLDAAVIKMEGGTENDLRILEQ
T1 sequence (looked up) 2: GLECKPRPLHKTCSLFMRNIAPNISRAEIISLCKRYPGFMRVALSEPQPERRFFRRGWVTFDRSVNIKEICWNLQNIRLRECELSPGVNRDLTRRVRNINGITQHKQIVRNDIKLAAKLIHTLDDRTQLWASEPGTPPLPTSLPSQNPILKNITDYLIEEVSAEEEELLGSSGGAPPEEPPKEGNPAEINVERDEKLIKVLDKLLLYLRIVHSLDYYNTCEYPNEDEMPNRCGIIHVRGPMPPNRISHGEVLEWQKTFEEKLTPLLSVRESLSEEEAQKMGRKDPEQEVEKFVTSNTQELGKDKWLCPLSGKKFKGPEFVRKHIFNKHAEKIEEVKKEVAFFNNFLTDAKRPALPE
Assay: ITC; MicroCal ITC200, 25 °C, ARS2 constructs with FLASH peptides; high salt (HS): buffer containing 250 mM NaCl; single-site fit; which partner was injected is not told
Details: both partners purified
result-type: Kd (µM)
The figure you give is taken to be in µM; do not add the unit.

Req: State, in one line, measured Kd of DELEEGEIRSDSE (FLASH (FLICE-associated huge protein), residues 931-943; also called FLASH^931–943; source: synthetic peptide, bought: GeneScript) [FARB (FLASH–ARS2-binding region) peptide of FLASH, residues 931–943]
Resp: 3.8
